Where these numbers come from: the Human Domainome abundance scans (Beltran et al. 2025)

B1: Zinc finger MYM-type protein 3, residues 405 to 444; numbered along this chain, Q14202 (parent)
chain: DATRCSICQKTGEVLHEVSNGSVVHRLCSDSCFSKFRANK

Variants of: B1
Test: abundance fitness (aPCA) (normalised: wild type 0, dead -1); higher = more abundant; growth selection in yeast, the domain comes from the species named
Conditions: Homo sapiens
Quick list: abundance fitness per entry.
No unit in the answer, only the number.

Please review the following examples before continuing.
R37K : 0.199
N20D : 0.153
S19N : 0.052
A2C : 0.305
D30C : -1.66

Attention now turns to another entry.
# input For V14T , what is its reported abundance fitness?
# output -0.033
